Hey, just so you know, these numbers are from ChEMBL document CHEMBL4325879.

Biological target: Tubulin (Bos taurus, UniProt Q6B856+Q862L2+Q862F3)
Assay: Inhibition of bovine brain tubulin polymerization after 20 mins in presence of GTP by spectrophotometric analysis
result-type: pIC50

smiles-string	result-type	readout-number
O=C(/C=C/c1ccc2c(c1)OCO2)NS(=O)(=O)c1ccc(F)cc1	pIC50	4.114
O=C(/C=C/c1ccc2c(c1)OCCO2)NS(=O)(=O)c1ccc(F)cc1	pIC50	4.562
O=C(/C=C/c1ccc2c(c1)OCO2)NS(=O)(=O)c1ccc(Cl)cc1	pIC50	4.024
O=C(/C=C/c1ccc2c(c1)OCCO2)NS(=O)(=O)c1ccccc1	pIC50	5.262
O=C(/C=C/c1ccc2c(c1)OCCCO2)NS(=O)(=O)c1ccccc1	pIC50	4.31

(I) Cc1ccc(S(=O)(=O)NC(=O)/C=C/c2ccc3c(c2)OCCO3)cc1
(II) O=C(/C=C/c1ccc2c(c1)OCO2)NS(=O)(=O)c1ccccc1
Query :: Between the two listed entries I and II , which has its pIC50 at the higher number? Bench note: the answer is the label of the chosen record.
Result :: II
(II: 6.056, I: 4.03)

====

Tested on: MCF7
Assay: Antiproliferative activity against human MCF7 cells after 48 hrs by MTT assay
Assay type: functional, cell-based
Conditions: MCF7, 48 h
result-type: IC50 (µg/mL)

smiles-string	IC50 [µg/mL]
O=C(/C=C/c1ccc2c(c1)OCO2)NS(=O)(=O)c1ccc(Cl)cc1	47.3
O=C(/C=C/c1ccc2c(c1)OCO2)NS(=O)(=O)c1ccc(F)cc1	74

(A) O=C(/C=C/c1ccc2c(c1)OCO2)NS(=O)(=O)c1ccc(Br)cc1
(B) O=C(/C=C/c1ccc2c(c1)OCO2)NS(=O)(=O)c1ccccc1
(C) O=C(/C=C/c1ccc2c(c1)OCCO2)NS(=O)(=O)c1ccccc1
Query :: Form: Sort by [IC50] Order [ ascending ] Put the labels in the order asked and list them.
Result :: B, C, A

====

Target: Tubulin (Bos taurus, UniProt Q6B856+Q862L2+Q862F3)
Assay: Inhibition of bovine brain tubulin polymerization after 20 mins in presence of GTP by spectrophotometric analysis
result-type: IC50 (µM)

Previously resolved entries follow.
smiles-string	unit-of-measure	IC50
O=C(/C=C/c1ccc2c(c1)OCO2)NS(=O)(=O)c1ccc(F)cc1	µM	76.9
O=C(/C=C/c1ccc2c(c1)OCO2)NS(=O)(=O)c1ccc(Br)cc1	µM	51.59
O=C(/C=C/c1ccc2c(c1)OCCCO2)NS(=O)(=O)c1ccccc1	µM	49.01
Cc1ccc(S(=O)(=O)NC(=O)/C=C/c2ccc3c(c2)OCCO3)cc1	µM	93.33
O=C(/C=C/c1ccc2c(c1)OCCO2)NS(=O)(=O)c1ccccc1	µM	5.47

(P) O=C(/C=C/c1ccc2c(c1)OCCO2)NS(=O)(=O)c1ccc(F)cc1
(Q) O=C(/C=C/c1ccc2c(c1)OCO2)NS(=O)(=O)c1ccccc1
Query :: Compare P and Q and name the one whose reported IC50 is smaller. Lab log: write the label of the selected item as the result.
Result :: Q
(Q: 0.88 µM, P: 27.46 µM)

(A) O=C(/C=C/c1ccc2c(c1)OCCO2)NS(=O)(=O)c1ccc(Cl)cc1
(B) Cc1ccc(S(=O)(=O)NC(=O)/C=C/c2ccc3c(c2)OCO3)cc1
Query :: Between A and B , which one shows the larger IC50 value? Write down the label of the entry you select.
Result :: A
(A: 87.92 µM, B: 40.85 µM)

====

Target: Tubulin (Bos taurus, UniProt Q6B856+Q862L2+Q862F3)
Test: Inhibition of bovine brain tubulin polymerization after 20 mins in presence of GTP by spectrophotometric analysis
result-type: pIC50

smiles-string	pIC50
O=C(/C=C/c1ccc2c(c1)OCO2)NS(=O)(=O)c1ccc(Br)cc1	4.288
O=C(/C=C/c1ccc2c(c1)OCCO2)NS(=O)(=O)c1ccc(Cl)cc1	4.056
Cc1ccc(S(=O)(=O)NC(=O)/C=C/c2ccc3c(c2)OCO3)cc1	4.389

====

Biological target: Tubulin (Bos taurus, UniProt Q6B856+Q862L2+Q862F3)
Experiment: Inhibition of bovine brain tubulin polymerization after 20 mins in presence of GTP by spectrophotometric analysis
result-type: IC50

Examples from the recorded data:
smiles-string	IC50
O=C(/C=C/c1ccc2c(c1)OCCO2)NS(=O)(=O)c1ccc(Br)cc1	> 100 µM
O=C(/C=C/c1ccc2c(c1)OCCCO2)NS(=O)(=O)c1ccc(Br)cc1	> 100 µM
O=C(/C=C/c1ccc2c(c1)OCO2)NS(=O)(=O)c1ccc(Cl)cc1	94.72 µM

Query :: Using known records, supply IC50 for Cc1ccc(S(=O)(=O)NC(=O)/C=C/c2ccc3c(c2)OCCCO3)cc1
Result :: > 100 µM

Query :: Supply recorded IC50 for O=C(/C=C/c1ccc2c(c1)OCCCO2)NS(=O)(=O)c1ccc(F)cc1 here.
Result :: > 100 µM

Query :: Identify measured IC50 associated with O=C(/C=C/c1ccc2c(c1)OCCCO2)NS(=O)(=O)c1ccc(Cl)cc1
Result :: > 100 µM
